System: CP194
Test Details: qHTS profiling for inhibitors of Plasmodium falciparum proliferation (AID 504749); also: nearly all actives have a fitted effect of over 60% in size
Applied Conditions: P. falciparum in erythrocytes, SYBR Green DNA, 72 h; series mostly up to 28.7 µM
Results filed as inconclusive are left out. Calls of active or inactive are those of the source. Calls follow the shape of the dose curve; as a rule, active = well fitted inhibition curve with a large enough effect; inconclusive = small, poorly fitted or top-dose-only effect; inactive = flat fitted curve, though single readings scatter.
Possible outcomes: yes (1) (active), no (0) (inactive)

• CCCCCOC(=O)Nc1nc(=O)n(C2O[C@H](C)[C@@H](O)[C@@H]2O)cc1F (stereo not given in full) = no (0)
• CO/N=C(/C(=O)N[C@@H]1C(=O)N2C(C(=O)O)=C(CSC(=O)c3ccco3)CSC12)c1csc(N)n1 (stereo not given in full) = no (0)
• O=C(O)CC(O)CC(O)/C=C/c1c(C2CC2)nc2ccccc2c1-c1ccc(F)cc1 (stereo not given) = no (0)
• CN[C@H](C)CCC=C(C)C = yes (1)
• Cc1ccc(S(=O)(=O)NC(=O)NC(C)Cc2ccccc2)cc1 (stereo not given) = no (0)
